- target: T1, Recombinant human CD4 (R&D Systems, Cat. 10327-CD) (human, UniProt P01730 26-390, limits assumed)
- T1 construct: Bought soluble recombinant protein used as analyte at 100 nM; also called huCD4
- assayNotes: BLI (Octet Red384), non-clonal supernatant on AMC sensor, 100 nM human CD4
For each record, write down the corresponding Response.
The reply should be a number, written without any unit.

Task: I'd like to know its Response. The binder in question is 75110_03I08A (antibody, V domains shown, Non-clonal AlivaMab Mouse Kappa hybridoma supernatant, captured by anti-mouse IgG Fc (human V regions, mouse Fc)) VH: QVQLQESGPGLVKPSETLSLTCTVSGGSISSYYWSWIRQPPGKGLEWIGYIYYSGSTNYNPSLKSRVTISVDTSKNQFSLKLSSVTAADTAVYYCAREGEQWFYGLDVWGQGTTVTVSS VL: EIVLTQSPGTLSLSPGERATLSCRASQSVSSTYLAWYQQKPGQAPRLLIYGSSSRATGIPDRFSGSGSGTDFTLTISRLEPEDFAVYYCQQYGNSFPITFGQGTRLEIK
Output: 0.07

Task: Likewise for 75110_08G08A (antibody, V domains shown, Non-clonal AlivaMab Mouse Kappa hybridoma supernatant, captured by anti-mouse IgG Fc (human V regions, mouse Fc)) VH: QVQLQESGPGLVKPSETLSLTCSVSGGSISTYYWSWIRQPAGKGLEWIGRICTTENTNYNPSLKSRVTMSIDSSKNQFSLKLSSVTAADTAVYYCARDLERLNYYGMDVWGQGATVTVSS VL: DIQMTQSPSSLSASVGDRVTITCQASQDISNYLNWYQQKPGIAPKLLIYDASNLETGVPSRFSGSGSGTDFTFTISSLQPEDIATYYCQQYDSLPITFGQGTRLEIK ?
Output: 0.13
